Data origin, for the record: paper PMC7619385

biological target: LmxCLK1 (Leishmania mexicana, UniProt E9AMP2); test: biochemical; type: binding; conditions: DSF, 10 µM compound, 2 µM LmxCLK1, Run 1
Parameter ΔTm Run 1: see the listing below.
endpoint.label: ΔTm Run 1

{"columns": ["compound", "assay.value"],
 "data": [
  ["CNC(=O)c1cc(Oc2ccc(NC(=O)Nc3ccc(Cl)c(C(F)(F)F)c3)cc2)ccn1 [Sorafenib]", "-0.3 °C"],
  ["CNC(=O)Nc1ccc(-c2nc(N3CC4CCC(C3)O4)c3cnn(C4CCC5(CC4)OCCO5)c3n2)cc1", "0.2 °C"],
  ["CC(C)(C)c1cc(C=C(C#N)C#N)cc(Br)c1O", "0.0 °C"],
  ["CC[C@H](Nc1ncnc2[nH]cnc12)c1nc2cccc(F)c2c(=O)n1-c1ccccc1", "-0.2 °C"],
  ["Cl.Cl.NC1(c2ccc(-c3nc4ccn5c(=O)[nH]nc5c4cc3-c3ccccc3)cc2)CCC1 [MK-2206 2HCl]", "-0.1 °C"],
  ["COc1ccc(COc2cc3oc(=O)c4cc(C(C)O)ccc4c3cc2OC)cc1 (stereo not drawn)", "0.3 °C"]
]}

---

Target: UniProt:E9AMP2
Sequence (E9AMP2 1-422): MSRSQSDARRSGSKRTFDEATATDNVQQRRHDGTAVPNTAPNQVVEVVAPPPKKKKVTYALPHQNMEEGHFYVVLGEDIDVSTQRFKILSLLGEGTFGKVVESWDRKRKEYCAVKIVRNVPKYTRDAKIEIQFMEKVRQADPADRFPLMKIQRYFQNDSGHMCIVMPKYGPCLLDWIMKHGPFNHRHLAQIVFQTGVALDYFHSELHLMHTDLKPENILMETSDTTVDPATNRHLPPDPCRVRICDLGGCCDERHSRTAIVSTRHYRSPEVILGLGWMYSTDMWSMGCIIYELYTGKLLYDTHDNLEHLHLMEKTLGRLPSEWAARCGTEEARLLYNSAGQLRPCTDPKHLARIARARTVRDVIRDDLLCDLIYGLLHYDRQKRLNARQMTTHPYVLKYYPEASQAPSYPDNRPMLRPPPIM
Assay: biochemical
Assay type: binding
Settings: DSF, 10 µM compound, 2 µM LmxCLK1, Run 1

{"columns": ["compound", "ΔTm Run 1, °C"],
 "data": [
  ["O=c1cc(-c2cccc3c2Sc2ccccc2S3)oc(N2CCOCC2)c1", 0.6],
  ["N[C@@H]1CCCN(c2c(/C=C3\\SC(=O)NC3=O)cccc2-c2ccccc2)C1", 0.1],
  ["O=C(NOCC(O)CO)c1cc(Br)c(F)c(F)c1Nc1ccc(I)cc1F (stereo not drawn)", 0.4]
]}

---

Parameter ΔTm Average: see the listing below.
Target: LmxCLK1 (Leishmania mexicana, UniProt E9AMP2)
Sequence (E9AMP2 1-422): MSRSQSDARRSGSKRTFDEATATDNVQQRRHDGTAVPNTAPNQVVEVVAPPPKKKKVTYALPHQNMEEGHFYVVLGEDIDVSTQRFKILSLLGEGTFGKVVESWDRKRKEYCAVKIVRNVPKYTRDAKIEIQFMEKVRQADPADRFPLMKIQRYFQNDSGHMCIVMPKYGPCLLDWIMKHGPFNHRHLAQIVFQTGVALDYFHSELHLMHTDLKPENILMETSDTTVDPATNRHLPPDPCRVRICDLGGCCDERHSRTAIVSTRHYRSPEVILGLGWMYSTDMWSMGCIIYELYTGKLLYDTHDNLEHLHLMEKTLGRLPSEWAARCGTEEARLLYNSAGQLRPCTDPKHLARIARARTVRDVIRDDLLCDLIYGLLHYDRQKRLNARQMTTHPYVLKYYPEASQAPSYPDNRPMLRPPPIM
Assay: biochemical
Type: binding
endpoint.label: ΔTm Average

{"columns": ["compound", "endpoint.label", "assay.value"],
 "data": [
  ["COc1c(C)c(C(=O)c2ccc(N)c(C(=O)[O-])c2)n2ccccc12.[Na+] [SSR128129E]", "ΔTm Average", -0.1],
  ["CCc1cncnc1N1CCN(Cc2nc3ccc(C(F)(F)F)cc3[nH]2)CC1", "ΔTm Average", -0.1],
  ["N#Cc1c(O)c2c(-c3ccc(-c4ccccc4O)cc3)csc2[nH]c1=O", "ΔTm Average", -0.1]
]}

---

molecular target: UniProt E9AMP2; assay: biochemical; format: binding; details: DSF, 10 µM compound, 2 µM LmxCLK1, Run 1
Parameter ΔTm Run 1: see the listing below.
endpoint.label: ΔTm Run 1 (°C)

{"columns": ["molecule", "study.target", "assay.value"],
 "data": [
  ["N#C/C(=C(/N)Sc1ccc(N)cc1)c1ccccc1C(F)(F)F", "UniProt E9AMP2", -0.2],
  ["Cc1cc2c(F)c(Oc3ncnn4cc(OC[C@@H](C)OC(=O)[C@H](C)N)c(C)c34)ccc2[nH]1 [Brivanib Alaninate (BMS-582664)]", "UniProt E9AMP2", 0.3],
  ["COc1cc2c(N3CCN(C(=O)Nc4ccc(OC(C)C)cc4)CC3)ncnc2cc1OCCCN1CCCCC1", "UniProt E9AMP2", 0.1]
]}

---

molecular target: LmxCLK1 (Leishmania mexicana); assay: biochemical; assay type: binding
Parameter ΔTm Average: see the listing below.

{"columns": ["compound", "quantity.unit", "ΔTm Average"],
 "data": [
  ["CC(=O)Nc1nc(C)c(-c2ccc(Cl)c(S(=O)(=O)NCCO)c2)s1 [PIK-93]", "°C", 0],
  ["Cc1nc(NC(=O)N2CCC[C@H]2C(N)=O)sc1-c1csc(C(C)(C)C)n1 [A66]", "°C", 0],
  ["COc1ccc(-c2cc3c(C)nc(N)nc3n([C@H]3CC[C@H](OCCO)CC3)c2=O)cn1 [PF-04691502]", "°C", 0.2],
  ["COc1ccc2cc(-c3nc(-c4ccc([S+](C)[O-])cc4)[nH]c3-c3ccncc3)ccc2c1 (centres unmarked) [Tie2 kinase inhibitor]", "°C", 0.1],
  ["NC(=O)c1cnc(N[C@@H]2CCCC[C@@H]2N)nc1Nc1cccc(-n2nccn2)c1 [PRT062607 (P505-15)]", "°C", 1.3]
]}

---

target: LmxCLK1 (Leishmania mexicana, UniProt E9AMP2); assay: biochemical; type: binding; conditions: DSF, 10 µM compound, 2 µM LmxCLK1, Run 2; read-out: ΔTm Run 2
Parameter ΔTm at 10 µM: see the listing below.
endpoint.label: ΔTm at 10 µM (°C)

{"columns": ["smiles.string", "assay.value"],
 "data": [
  ["Cn1cc(C2=C(c3ccc(Cl)cc3Cl)C(=O)NC2=O)c2ccccc21", -0.1],
  ["CCN(CC)CCCCNc1ncc2cc(-c3cc(OC)cc(OC)c3)c(NC(=O)NC(C)(C)C)nc2n1", -0.1],
  ["CCNC(=O)Nc1ccc(-c2nc3c(c(N4CCOC[C@@H]4C)n2)CCN(C2COC2)C3)cc1", -0.1],
  ["Nc1ncnc2c1c(-c1cccc(OCc3ccccc3)c1)cn2[C@H]1C[C@@H](CN2CCC2)C1", -0.1],
  ["CNc1nc(Nc2cn(C(C)(C)C#N)nc2C)ncc1C(F)(F)F", -0.2],
  ["CNC(=O)c1ccc(C)c(-n2c(C)cc(OCc3ccc(F)cc3F)c(Br)c2=O)c1", -0.3],
  ["Cc1cc(C(=O)NOCCO)c(Nc2ccc(I)cc2F)n(C)c1=O", 0.2],
  ["COc1ccc(-c2ccc3c(N4CCOCC4)nc(N4C[C@@H](C)O[C@@H](C)C4)nc3n2)cc1CO", 0.1],
  ["Cc1cc(Nc2nc(N[C@@H](C)c3ccc(F)cc3)c(C#N)cc2F)[nH]n1", 0.3],
  ["COc1cc2ncnc(Oc3cccc(NC(=O)Nc4cc(C(C)(C)C(F)(F)F)on4)c3)c2cc1OC", -0.2],
  ["COc1cc(N2CCC(N3CCN(C)CC3)CC2)ccc1Nc1ncc(Cl)c(Nc2ccccc2P(C)(C)=O)n1", 0.9],
  ["Cc1nc(NC(=O)N2CCC[C@H]2C(N)=O)sc1-c1ccnc(C(C)(C)C(F)(F)F)c1", 0.2],
  ["O=c1c(O)c(-c2ccc(O)c(O)c2)oc2cc(O)cc(O)c12", 0.6]
]}

---

biological target: NLuc::LmxCLK1 (Leishmania mexicana, UniProt E9AMP2); assay: cell-based; assay type: cell-based; conditions: 10 µM compound, tracer SV366, promastigotes
Parameter Target occupancy Run 1: see the listing below.

{"columns": ["molecule", "Target occupancy Run 1 (%)"],
 "data": [
  ["CN1CCCN(C(=O)c2cccc(-c3ccc(/C=C4/C(=O)Nc5ccc(Cl)cc54)o3)c2)CC1.Cl [CX-6258 HCl]", -0.5],
  ["COc1ccc(-c2cc3c(C)nc(N)nc3n([C@H]3CC[C@H](OCCO)CC3)c2=O)cn1", -3.4],
  ["N#Cc1c(O)c2c(-c3ccc(-c4ccccc4O)cc3)csc2[nH]c1=O", 1.2],
  ["CC(C)(C)n1nc(-c2ccc(Cl)cc2)c2c(N)ncnc21", -3.1],
  ["Cc1[nH]c2ccccc2c1C1=C(NCCc2ccc(F)cc2)C(=O)N(C)C1=O", -0.3],
  ["Cc1ccccc1CN1C(=O)C2=C(CCN(Cc3ccccc3)C2)N2CCN=C12", 4.1],
  ["C=CC(=O)Nc1cccc(Nc2nc(Nc3ccc(Oc4ccnc(C(=O)NC)c4)cc3)ncc2F)c1", -4.4],
  ["O=C(O)[C@]1(Cc2cccc(Nc3nccs3)n2)CC[C@@H](Oc2cccc(Cl)c2F)CC1", -2.8]
]}
